Where do the numbers come from? From ChEMBL document CHEMBL1143122.

LC50 reference
System: SF-539
Assay: Antiproliferative activity against human SF539 cells after 48 hrs
Type: functional
Conditions: SF-539, 48 h
Reported Endpoint: LC50 (µM)

> print(dat)
                         chemical.structure  tested.system  reported.endpoint  qualifying.sign  reported
1  CCCCCCCCCCCCCCN[C@H](CO)[C@H](O)c1ccc([N+](=O)[O-])cc1.Cl         SF-539               LC50                =      6.03
2  CCCCCCCCCCCCCCN[C@H](CO)[C@H](O)c1ccccc1         SF-539               LC50                =      6.03
3  CCCCCCCCCCCCCCN[C@H](C)[C@@H](O)c1ccccc1.Cl         SF-539               LC50                =       5.5
4  C[C@@H](NC(=O)CCCCCCCCCCCCCCC[n+]1ccccc1)[C@@H](O)c1ccccc1.[Br-]         SF-539               LC50                >       100
5  C[C@H](NC(=O)CCCCCCCCCCCCCCC[n+]1ccccc1)[C@H](O)c1ccccc1.[Br-]         SF-539               LC50                =      39.8
6        CCCCCCCCCCCCCCN[C@@H](CO)Cc1ccccc1         SF-539               LC50                =      6.76
